B1: scFv; the commonest letter at each place (parent)
chain 1: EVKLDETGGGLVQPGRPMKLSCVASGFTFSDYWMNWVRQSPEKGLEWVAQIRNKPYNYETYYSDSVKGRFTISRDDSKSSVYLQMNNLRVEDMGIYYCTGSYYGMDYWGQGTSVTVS
chain 2: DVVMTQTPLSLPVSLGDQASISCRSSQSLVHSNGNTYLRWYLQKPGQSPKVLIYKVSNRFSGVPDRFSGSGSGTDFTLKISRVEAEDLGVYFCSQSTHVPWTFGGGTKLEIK

Variants of: B1
protocol_description: yeast surface expression (ratio to wild type); higher = more expressed
measurement_parameters: format: scFv 4-4-20, heavy + light
observable: yeast surface expression
Lab note: write the figure by itself, no unit.

Req: Give yeast surface expression for chain 1 S101Q Y102D W108I
Resp: 0.495

Req: Give yeast surface expression for chain 1 Y103N G104T
Resp: 0.851

Req: Give yeast surface expression for chain 1 N35D
Resp: 0.922

Req: Give yeast surface expression for chain 1 Y103S G104D
Resp: 1.12

Req: Give yeast surface expression for chain 1 Y102S D106W
Resp: 0.385

Req: Give yeast surface expression for chain 1 W36A
Resp: 0.44

Req: Give yeast surface expression for chain 1 Y107I G109Q
Resp: 0.442

Req: Give yeast surface expression for chain 1 G104K D106H
Resp: 0.594

Req: Give yeast surface expression for chain 1 Y102E D106M
Resp: 0.531

Req: Give yeast surface expression for chain 1 G104T
Resp: 0.599

Req: Give yeast surface expression for chain 1 D31P Y32K
Resp: 0.708

Req: Give yeast surface expression for chain 1 S30I Y32T
Resp: 0.909

Req: Give yeast surface expression for chain 1 F29P Y32I M34L
Resp: 0.858

Req: Give yeast surface expression for chain 1 G104C
Resp: 0.578

Req: Give yeast surface expression for chain 1 D31F
Resp: 0.636

Req: Give yeast surface expression for chain 1 D31S V37P
Resp: 0.675

Req: Give yeast surface expression for chain 1 W108V
Resp: 0.831

Req: Give yeast surface expression for chain 1 M34R W36P
Resp: 1.27

Req: Give yeast surface expression for chain 1 M105V W108D
Resp: 0.437

Req: Give yeast surface expression for chain 1 F29E N35T
Resp: 0.578

Req: Give yeast surface expression for chain 1 T28L W36A
Resp: 0.508

Req: Give yeast surface expression for chain 1 D106G
Resp: 0.655
